Molecular target: PPARG/RXRA LBD heterodimer (Homo sapiens)
Construct: His-TEV-Q203-Y477; Uniprot ID P37231-2; made in house; host or cells: E. coli
Sequence (P37231 203-477 isoform P37231-2): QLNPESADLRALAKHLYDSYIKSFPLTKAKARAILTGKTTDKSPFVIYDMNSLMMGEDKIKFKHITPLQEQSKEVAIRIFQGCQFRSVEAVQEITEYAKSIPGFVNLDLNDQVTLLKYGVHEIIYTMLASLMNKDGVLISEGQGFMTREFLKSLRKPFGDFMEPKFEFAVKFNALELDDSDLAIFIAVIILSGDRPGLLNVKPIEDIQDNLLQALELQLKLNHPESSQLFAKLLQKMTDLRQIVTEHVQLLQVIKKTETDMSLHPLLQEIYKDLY
Sequence (P19793 228-462 partner limits assumed): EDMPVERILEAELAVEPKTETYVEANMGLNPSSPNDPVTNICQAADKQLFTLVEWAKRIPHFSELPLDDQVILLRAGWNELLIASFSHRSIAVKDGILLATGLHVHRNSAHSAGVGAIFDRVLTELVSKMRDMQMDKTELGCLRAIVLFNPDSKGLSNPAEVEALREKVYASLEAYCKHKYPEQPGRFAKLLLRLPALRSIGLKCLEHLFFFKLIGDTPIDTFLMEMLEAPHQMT
Test: PPARγ-MED1 blockade assay (TR-FRET, biotinylated MED1 LxxLL peptide)
Assay type: biochemical
Conditions: WT PPARG LBD/WT RXRA LBD, 80 nM Rosiglitazone, 3 hours
measurementType: EC50

For N#Cc1ccc(Cl)c(-c2cc(=O)c3c(F)c(N4CCCC4=O)c(F)cc3[nH]2)c1 [Example 27] , what is its reported EC50?
1000 to 10000 nM

Next molecule up: CN(C)C(=O)c1cccc(-c2c(F)cc3[nH]c(-c4cc(C#N)ccc4Cl)cc(=O)c3c2F)n1 [Example 85]
1000 to 10000 nM

Ok, now CN(C)C(=O)C1CN(c2c(F)cc3[nH]c(-c4cc(C#N)ccc4Cl)cc(=O)c3c2F)C1 [Example 102]
1000 to 10000 nM

Try this molecule next: N#Cc1ccc(Cl)c(-c2cc(=O)c3c(F)c(-c4cc[nH]n4)c(F)cc3[nH]2)c1 [Example 97]
100 to 1000 nM

For N#Cc1ccc(Cl)c(-c2cc(=O)c3cc(C#N)c(C(F)(F)F)cc3[nH]2)c1 [Example 12] then?
1000 to 10000 nM

Again, but for Cn1ncc(-c2c(F)cc3[nH]c(-c4cc(C#N)ccc4Cl)cc(=O)c3c2F)cc1=O [Example 63]
100 to 1000 nM

# repeat for N#Cc1ccc(Cl)c(-c2cc(=O)c3c(F)c(C(F)(F)F)c(F)cc3[nH]2)c1 [Example 32]
100 to 1000 nM

Next molecule up: Cc1c(F)cc(F)c2c(=O)cc(-c3cc(C#N)ccc3Cl)[nH]c12 [Example 28]
100 to 1000 nM

Next molecule: N#Cc1ccc(Cl)c(-c2cc(=O)c3c(Cl)cc(F)cc3[nH]2)c1 [Example 18]
100 to 1000 nM

// same read-out, input: CC(C)(O)Cn1cc(-c2c(F)cc3[nH]c(-c4cc(C#N)ccc4Cl)cc(=O)c3c2F)cn1 [Example 48]
1000 to 10000 nM

Continue with CN(C)C(=O)N1CCN(c2c(F)cc3[nH]c(-c4cc(C#N)ccc4Cl)cc(=O)c3c2F)CC1 [Example 113]
1000 to 10000 nM

Lookup N#Cc1ccc(Cl)c(-c2cc(=O)c3c(F)c(-c4ccc5c(c4)NC(=O)C5)c(F)cc3[nH]2)c1 [Example 56]
100 to 1000 nM

What about N#Cc1ccc(Cl)c(-c2[nH]c3cc(F)cc(F)c3c(=O)c2F)c1 [Example 118] ?
> 10000 nM

Moving on to the next molecule: N#Cc1ccc(Cl)c(-c2cc(=O)c3c(F)c(CCC(=O)O)c(F)cc3[nH]2)c1 [Example 77]
1000 to 10000 nM

Again, but for N#Cc1ccc(Cl)c(-c2cc(=O)c3c(F)c(-c4ccc(C(F)F)nc4)c(F)cc3[nH]2)c1 [Example 73]
10 to 100 nM

Now the molecule N#Cc1ccc(Cl)c(-c2cc(=O)c3c(F)c(-c4cnc(C(F)(F)F)nc4)c(F)cc3[nH]2)c1 [Example 50]
100 to 1000 nM

Would you mind doing CC(=O)N1CCC(c2c(F)cc3[nH]c(-c4cc(C#N)ccc4Cl)cc(=O)c3c2F)CC1 [Example 95] as well?
100 to 1000 nM

###

Target: PPARG/RXRA LBD heterodimer (Homo sapiens, UniProt P37231)
Construct: His-TEV-Q203-Y477; Uniprot ID P37231-2; made in house; host or cells: E. coli
Sequence (P37231 203-477 isoform P37231-2): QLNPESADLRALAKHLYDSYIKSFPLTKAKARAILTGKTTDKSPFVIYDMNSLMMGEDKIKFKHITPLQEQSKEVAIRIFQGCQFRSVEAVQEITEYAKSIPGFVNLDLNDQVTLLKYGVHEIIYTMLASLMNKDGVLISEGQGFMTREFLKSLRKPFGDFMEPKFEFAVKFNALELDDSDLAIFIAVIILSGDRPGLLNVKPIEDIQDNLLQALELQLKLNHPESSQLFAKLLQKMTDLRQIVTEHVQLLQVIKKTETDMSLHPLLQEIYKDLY
Sequence (P19793 228-462 partner limits assumed): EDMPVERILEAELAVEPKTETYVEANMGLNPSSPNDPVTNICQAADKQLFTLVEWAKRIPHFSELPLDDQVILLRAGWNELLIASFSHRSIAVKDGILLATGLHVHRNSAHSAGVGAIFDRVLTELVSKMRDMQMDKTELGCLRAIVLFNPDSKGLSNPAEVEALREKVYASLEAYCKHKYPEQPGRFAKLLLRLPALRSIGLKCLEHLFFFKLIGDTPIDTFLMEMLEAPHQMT
Experiment: PPARγ-MED1 blockade assay (TR-FRET, biotinylated MED1 LxxLL peptide)
Assay type: biochemical
Details: WT PPARG LBD/WT RXRA LBD, 80 nM Rosiglitazone, 3 hours
pEC50: −log10 of the molar value.
Can you tell me pEC50 for the items I'm about to list?

Would you mind telling me what pEC50 value was observed for N#Cc1ccc(Cl)c(-c2cc(=O)c3c(F)c(-c4ccnc(C(F)F)c4)c(F)cc3[nH]2)c1 ?
6.00 to 7.00

N#Cc1ccc(Cl)c(-c2cc(=O)c3c(F)c(-c4nccc(=O)[nH]4)c(F)cc3[nH]2)c1 , same question.
5.00 to 6.00

Cool, now N#Cc1ccc(Cl)c(-c2cc(=O)c3c(F)c(-c4cnn(C(F)(F)F)c4)c(F)cc3[nH]2)c1
6.00 to 7.00

Do the same for N#Cc1ccc(Cl)c(-c2cc(=O)c3c(F)c(F)c(F)cc3[nH]2)c1 please
5.00 to 6.00

Try this molecule too: COCCn1ccc(-c2c(F)cc3[nH]c(-c4cc(C#N)ccc4Cl)cc(=O)c3c2F)n1
6.00 to 7.00

Please answer likewise for N#Cc1ccc(Cl)c(-c2cc(=O)c3c(F)c(N4CCS(=O)(=O)CC4)c(F)cc3[nH]2)c1
5.00 to 6.00

Query N#Cc1ccc(F)c(-c2cc(=O)c3c(F)cc(F)cc3[nH]2)c1 next
5.00 to 6.00

Proceed to Cn1ccc(-c2c(F)cc3[nH]c(-c4cc(C#N)ccc4Cl)cc(=O)c3c2F)n1
6.00 to 7.00

Entry CS(=O)(=O)c1ccc(-c2c(F)cc3[nH]c(-c4cc(C#N)ccc4Cl)cc(=O)c3c2F)cc1 please
6.00 to 7.00

And for N#Cc1ccc(Cl)c(-c2cc(=O)c3c(F)c(-c4ccc(CO)nc4)c(F)cc3[nH]2)c1 ?
6.00 to 7.00

Entry to check: Cn1cc(-c2c(F)cc3[nH]c(-c4cc(C#N)ccc4Cl)cc(=O)c3c2F)cn1
6.00 to 7.00

Same question, N#Cc1ccc(Cl)c(-c2cc(=O)c3c(F)c(N4CCOCC4)c(F)cc3[nH]2)c1 this time
6.00 to 7.00

###

Answer each item with its documented EC50.
molecular target: PPARG/RXRA LBD heterodimer (Homo sapiens); construct: His-TEV-Q203-Y477; Uniprot ID P37231-2; made in house; host or cells: E. coli; experiment: PPARγ-NCOR1 recruitment assay (TR-FRET, biotinylated NCOR1 ID2 peptide); type: biochemical; settings: 80 nM Rosiglitazone, 3 hours, read-out: PPARG-NCOR recruitment assay EC50
Sequence (O75376 2251-2273 partner, one chain of several): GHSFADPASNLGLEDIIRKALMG

Quick one: EC50 for N#Cc1ccc(Br)c(-c2cc(=O)c3c(F)cc(F)cc3[nH]2)c1 ?
10 to 100 nM

N#Cc1ccc(Cl)c(-c2cc(=O)c3c(F)c(N4CCCC4=O)c(F)cc3[nH]2)c1 ?
1000 to 10000 nM

Next entry: N#Cc1ccc(Cl)c(-c2cc(=O)c3c(F)c(-c4ccc(CO)nc4)c(F)cc3[nH]2)c1
100 to 1000 nM

Follow-up item: CN(C)C(=O)c1cc(-c2c(F)cc3[nH]c(-c4cc(C#N)ccc4Cl)cc(=O)c3c2F)ccc1C(F)(F)F
100 to 1000 nM

Same read-out for CC(=O)N1CCN(c2c(F)cc3[nH]c(-c4cc(C#N)ccc4Cl)cc(=O)c3c2F)CC1 ?
1000 to 10000 nM

Subsequent entry: Cc1cc(-c2c(F)cc3[nH]c(-c4cc(C#N)ccc4Cl)cc(=O)c3c2F)cc(C)n1
100 to 1000 nM

Now this one: CO[C@@H]1CCN(c2c(F)cc3[nH]c(-c4cc(C#N)ccc4Cl)cc(=O)c3c2F)C1
100 to 1000 nM

Then N#Cc1ccc(Cl)c(-c2cc(=O)c3ccc(Cl)cc3[nH]2)c1 ?
100 to 1000 nM

Repeat with N#Cc1ccc(Cl)c(-c2cc(=O)c3c(F)c(-c4c[nH]c(C(F)(F)F)n4)c(F)cc3[nH]2)c1
10 to 100 nM

Same lookup for COCCn1ccc(-c2c(F)cc3[nH]c(-c4cc(C#N)ccc4Cl)cc(=O)c3c2F)n1 , please.
100 to 1000 nM

Now try N#Cc1ccc(Cl)c(-c2cc(=O)c3c(F)c(CCC(=O)O)c(F)cc3[nH]2)c1 .
1000 to 10000 nM

And N#Cc1ccc(F)c(-c2cc(=O)c3c(F)cc(F)cc3[nH]2)c1 ?
1000 to 10000 nM

Same for CN(C)C(=O)[C@H]1CCCN(c2c(F)cc3[nH]c(-c4cc(C#N)ccc4Cl)cc(=O)c3c2F)C1
100 to 1000 nM

Moving on to the next compound: N#Cc1ccc(Cl)c(-c2cc(=O)c3c(F)c(-c4ccncc4F)c(F)cc3[nH]2)c1
100 to 1000 nM

Please answer likewise for N#Cc1ccc(Cl)c(-c2cc(=O)c3c(F)c(-c4ccc(C(F)F)cc4)c(F)cc3[nH]2)c1
10 to 100 nM

Item: N#Cc1ccc(Cl)c(-c2cc(=O)c3c(F)c(-c4ccc(C(F)F)cn4)c(F)cc3[nH]2)c1
100 to 1000 nM

Also need CNC(=O)Cc1ccc(-c2c(F)cc3[nH]c(-c4cc(C#N)ccc4Cl)cc(=O)c3c2F)cc1 , thanks.
100 to 1000 nM

Also check CC(C)(CO)n1cc(-c2c(F)cc3[nH]c(-c4cc(C#N)ccc4Cl)cc(=O)c3c2F)cn1
100 to 1000 nM

Same lookup for CN(C)C(=O)c1cc(-c2c(F)cc3[nH]c(-c4cc(C#N)ccc4Cl)cc(=O)c3c2F)ccn1 , please.
1000 to 10000 nM

Would you kindly repeat that for N#Cc1ccc(Cl)c(-c2cc(=O)c3c(F)c(-c4ccc5c(c4)NC(=O)C5)c(F)cc3[nH]2)c1 ?
100 to 1000 nM

Cool, now CO[C@H]1CCN(c2c(F)cc3[nH]c(-c4cc(C#N)ccc4Cl)cc(=O)c3c2F)C1
100 to 1000 nM
